Hey, just so you know, these numbers are from ChEMBL document CHEMBL3885861.

organism: Rattus norvegicus; experiment: Open TG-GATES - Regimen: Daily Repeat; assay type: toxicity, organism-based, Sprague-Dawley; design: regimen Daily Repeat, gender Male, age 6 weeks; settings: in vivo, po, 300 mg/kg, […], tissue Plasma, route gavage, dose level Middle, time 28 day
The entries below come with measured TBIL values attached.
For clarity, give the value followed by its unit.

compound	TBIL
COC1=CC(=O)C[C@@H](C)[C@]12Oc1c(Cl)c(OC)cc(OC)c1C2=O	0.1 mg/dL
CCOc1ccc(NC(=O)CC(C)O)cc1 (stereo not given)	0.07 mg/dL
COc1ccc2[nH]c([S+]([O-])Cc3ncc(C)c(OC)c3C)nc2c1 (stereo not given)	0.1 mg/dL
CCOC(=O)CCC(=O)O[C@H]1[C@H](O[C@@H]2[C@@H](C)[C@H](O[C@H]3C[C@@](C)(OC)[C@@H](O)[C@H](C)O3)[C@@H](C)C(=O)O[C@H](CC)[C@@](C)(O)[C@H](O)[C@@H](C)C(=O)[C@H](C)C[C@@]2(C)O)O[C@H](C)C[C@@H]1N(C)C [ERYTHROMYCIN ETHYLSUCCINATE]	0.014 mg/dL

Please turn your attention to the following entry.
stdin: Sample NC(N)=Nc1nc(CSCCC(N)=NS(N)(=O)=O)cs1 — what was its TBIL?
stdout: 0.1 mg/dL
